Origin of measurements: patent US20030068675

Target: T1, ZFP SBS#1432 (synthetic)
T1 chain: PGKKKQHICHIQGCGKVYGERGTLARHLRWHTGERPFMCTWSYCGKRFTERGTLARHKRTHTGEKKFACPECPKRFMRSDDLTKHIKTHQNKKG
Test: EMSA
Settings: tags: MBP fusion
measurement-kind: Kd (nM)
Report the figure in nM without appending any unit label.

query: Can you share its Kd? I mean this binder: TCGGCCGCC (dsDNA) DNA 1: TCGGCCGCC DNA 2: GGCGGCCGA
result: 1.78
